# experimental protocol: total protein half-life in vivo (active degradation + dilution); higher = more stable protein
# condition notes: wild type E. coli NCM3722; growth: C-lim chemostat; doubling time 12 h
Think of 10 h as a floor: if total protein half-life in vivo stands on it or above, it is class 1; beneath it, class 0.

[[record]]
polymer_sequence = "MDIIFYHPTFDTQWWIEALRKAIPQARVRAWKSGDNDSADYALVWHPPVEMLAGRDLKAVFALGAGVDSILSKLQAHPEMLNPSVPLFRLEDTGMGEQMQEYAVSQVLHWFRRFDDYRIQQNSSHWQPLPEYHREDFTIGILGAGVLGSKVAQSLQTWRFPLRCWSRTRKSWPGVQSFAGREELSAFLSQCRVLINLLPNTPETVGIINQQLLEKLPDGAYLLNLARGVHVVEDDLLAALDSGKVKGAMLDVFNREPLPPESPLWQHPRVTITPHVAAITRPAEAVEYISRTIAQLEKGERVCGQVDRARGY"
group = "class 1"

[[record]]
polymer_sequence = "MHCPFCFAVDTKVIDSRLVGEGSSVRRRRQCLVCNERFTTFEVAELVMPRVVKSNDVREPFNEEKLRSGMLRALEKRPVSSDDVEMAINHIKSQLRATGEREVPSKMIGNLVMEQLKKLDKVAYIRFASVYRSFEDIKEFGEEIARLED [P0A8D0]"
group = "class 0"

[[record]]
polymer_sequence = "MDINNKARIHWACRRGMRELDISIMPFFEHEYDSLSDDEKRIFIRLLECDDPDLFNWLMNHGKPADAELEMMVRLIQTRNRERGPVAI"
group = "class 0"


Could you verify whether the entry MMMGEVQSLPSAGLHPALQDALTLALAARPQEKAPGRYELQGDNIFMNVMTFNTQSPVEKKAELHEQYIDIQLLLNGEERILFGMAGTARQCEEFHHEDDYQLCSTIDNEQAIILKPGMFAVFMPGEPHKPGCVVGEPGEIKKVVVKVKADLMA shows total protein half-life in vivo of no less than 10 h? class 0

Please tell me: is the sequence MTIWVDADACPNVIKEILYRAAERMQMPLVLVANQSLRVPPSRFIRTLRVAAGFDVADNEIVRQCEAGDLVITADIPLAAEAIEKGAAALNPRGERYTPATIRERLTMRDFMDTLRASGIQTGGPDSLSQRDRQAFAAELEKWWLEVQRSRG [P0A8D3] at or over 10 h in terms of total protein half-life in vivo? class 0

----------
total protein half-life in vivo: recorded values
# experimental protocol: total protein half-life in vivo (active degradation + dilution); higher = more stable protein
# condition notes: wild type E. coli NCM3722; growth: C-lim chemostat; doubling time 6 h
Report the figure in h without appending any unit label.

[[record]]
polymer_sequence = "MSKKIAVLITDEFEDSEFTSPADEFRKAGHEVITIEKQAGKTVKGKKGEASVTIDKSIDEVTPAEFDALLLPGGHSPDYLRGDNRFVTFTRDFVNSGKPVFAICHGPQLLISADVIRGRKLTAVKPIIIDVKNAGAEFYDQEVVVDKDQLVTSRTPDDLPAFNREALRLLGA"
unit_abbrev = "h"
quantitative_readout = 5.32


Next sequence, please.
Consider the sequence shown here: MLKRVFLSLLVLIGLLLLTVLGLDRWMSWKTAPYIYDELQDLPYRQVGVVLGTAKYYRTGVINQYYRYRIQGAINAYNSGKVNYLLLSGDNALQSYNEPMTMRKDLIAAGVDPSDIVLDYAGFRTLDSIVRTRKVFDTNDFIIITQRFHCERALFIALHMGIQAQCYAVPSPKDMLSVRIREFAARFGALADLYIFKREPRFLGPLVPIPAMHQVPEDAQGYPAVTPEQLLELQKKQGK [P0AFY2] What is its recorded total protein half-life in vivo? 5.81
